System: Erysiphe graminis
Assay: Erysiphe graminis protective spray test on barley seedlings (greenhouse)
Type: in vivo
Conditions: 16 mg/l Spritzbrühe; barley seedlings HERTA, infected 2 days after spraying, read 7 days after infection vs infected untreated control
Label rule, in plain words: Wirkung (in %) Erysiphe graminis of 80% and up is MET, under 80% is NOT MET.

These solved cases illustrate the format of a correct answer.
CCC(C)(C)c1ccc(C(C)=C(C)CN2CCC(=O)CC2)cc1 = MET
CCC(C)(C)c1ccc(C(C)=C(C)CN2CCC3(CC2)OCCO3)cc1 = MET

Is Wirkung (in %) Erysiphe graminis at least 80%? Consider CC(CN1CCC(=O)CC1)=C(C)c1ccc(C(C)(C)C)cc1 NOT MET

Is Wirkung (in %) Erysiphe graminis at least 80%? Consider CC(Cc1ccc(C(C)(C)CCl)cc1)CN1CCCCC1 (stereo not drawn) NOT MET

Is Wirkung (in %) Erysiphe graminis at least 80%? Consider CC(Cc1ccc(C(C)(C)C)cc1)CN1CCC2(CC1)OCCO2 (stereo not drawn) NOT MET

Is Wirkung (in %) Erysiphe graminis at least 80%? Consider CCC(C)(C)c1ccc(CC(C)CN2CCC3(CC2)OCCO3)cc1 (stereo not drawn) MET
